molecular target: Sphingosine 1-phosphate receptor 1 (Homo sapiens); test: potentiators of S1P1 agonist response, dose response, cell-based, potentiator mode, 60K MLSMR set (AID 466)
Listed here: items and their measured pEC50.
Note on units: pEC50 is unitless, being -log10 of a concentration expressed in mol/L.

Worked cases, answers included:
Noted for "O=C(Nc1ccc(-c2noc(CCc3ccccc3)n2)cc1)c1cccnc1" : its pEC50 reads 5.47

Noted for "Cc1cc(C(=O)CSc2nnnn2-c2ccc(O)cc2)c(C)n1Cc1ccc2c(c1)OCO2" : its pEC50 reads 5.21

Noted for "Cc1ccc(OCc2nc(-c3ccccc3)no2)c(C)c1" : its pEC50 reads 5.71

Noted for "Cc1cc(C(=O)CSc2nc3ccccc3c(=O)n2C)c(C)n1Cc1ccc2c(c1)OCO2" : its pEC50 reads 5.25

In the following, a different compound is considered.
Noted for "OC1(c2cccc(C(F)(F)F)c2)CCN(c2ncnc3c2[nH]c2ccc(F)cc23)CC1" : its pEC50 reads 5.36

* * *

target: Sphingosine 1-phosphate receptor 1 (Homo sapiens); assay: potentiators of S1P1 agonist response, dose response, cell-based, potentiator mode, 60K MLSMR set (AID 466)
Listed here: items and their measured pEC50.
Note on units: pEC50 is unitless, being -log10 of a concentration expressed in mol/L.

Noted for "CCOC(=O)N1CCN(C(=O)C2CCN(c3ncnc4c3sc3cccc(F)c34)CC2)CC1" : its pEC50 reads 5.18

Noted for "Cc1csc(SCC(=O)c2cc(C)n(Cc3cccs3)c2C)n1" : its pEC50 reads 5.15

Noted for O=C(Nc1c(F)cc(F)cc1Br)c1cc(-c2ccc(O)cc2)on1 [MLS000116264] : its pEC50 reads 5.67

Noted for CCc1ccc(NC(=O)c2cc(-c3ccco3)on2)cc1 [MLS000087211] : its pEC50 reads 5.35

Noted for "O=C(CCc1nc(-c2ccccc2F)no1)Nc1ccc(Oc2ccccc2)cc1" : its pEC50 reads 5.32

Noted for "COc1ccc(-n2c(O)cc(Sc3nnc[nH]3)c2O)c(OC)c1" : its pEC50 reads 4.79

Noted for CCc1c(C)sc(NC(=O)c2cc(-c3ccco3)on2)c1C#N [MLS000087225] : its pEC50 reads 5.44

Noted for "c1ccc(C(Cc2nc(-c3cccnc3)no2)c2ccccc2)cc1" : its pEC50 reads 5.58

---
Noted for Cc1csc(NC(=O)c2nc(-c3ccccc3)n(-c3ccccc3)n2)n1 [MLS000058347] : its pEC50 reads 5.01

Noted for Cc1nc(NC(C)c2ccccc2)c2oc3ccccc3c2n1 (centres undefined) : its pEC50 reads 5.01

Noted for "C=C(C)COc1ccc(-c2nc(N)nc(C)c2Oc2ccccc2OC)c(O)c1" : its pEC50 reads 5.55

Noted for CCCc1ccc(Oc2c[nH]nc2-c2ccc(O)c(C)c2O)cc1 [SMR000024172] : its pEC50 reads 4.83

Noted for "COc1ccc(N2CCn3c2nc2c3c(=O)n(CCCc3ccccc3)c(=O)n2C)c(OC)c1" : its pEC50 reads 5.06

Noted for O=S(=O)(c1cccs1)N1CCN(CC(O)COc2cc(Cl)ccc2Cl)CC1 (centres undefined) : its pEC50 reads 5.36

Noted for CC(C)(C)OC(=O)N[C@@H](Cc1ccccc1)c1nnc(S(=O)(=O)Cc2ccccc2)o1 [SMR000047857] : its pEC50 reads 5.27

Noted for COc1ccc(-n2nc3ccc(NS(C)(=O)=O)cc3n2)cc1Cl [MLS000049114] : its pEC50 reads 6.90

* * *

Listed here: items and their measured EC50.
molecular target: Sphingosine 1-phosphate receptor 1 (Homo sapiens, UniProt P21453); test: potentiators of S1P1 agonist response, dose response, cell-based, potentiator mode, 60K MLSMR set (AID 466); settings: inactive by the depositor's call
Sequence (P21453 whole entry): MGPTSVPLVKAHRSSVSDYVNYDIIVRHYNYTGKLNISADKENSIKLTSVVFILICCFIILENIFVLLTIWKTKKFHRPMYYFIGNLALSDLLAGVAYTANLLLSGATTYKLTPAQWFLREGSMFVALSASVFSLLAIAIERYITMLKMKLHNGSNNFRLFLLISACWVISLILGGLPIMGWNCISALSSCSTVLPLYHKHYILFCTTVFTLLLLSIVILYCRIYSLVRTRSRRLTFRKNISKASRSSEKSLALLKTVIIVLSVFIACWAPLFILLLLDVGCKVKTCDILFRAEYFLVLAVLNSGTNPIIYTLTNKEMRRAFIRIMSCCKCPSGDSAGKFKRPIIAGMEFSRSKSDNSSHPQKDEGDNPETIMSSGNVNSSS
Dear colleague, please return just the value in µM, with no unit written.

Noted for "CS(=O)(=O)n1nc(OC(=O)c2cccc3ccccc23)cc1N" : its EC50 reads 11.9

Noted for "COc1cccc(-c2nnc3sc(C4CCCCC4)nn23)c1" : its EC50 reads 30.6

Noted for "O=c1oc2cc(Br)ccc2n1CSC1=NCCS1" : its EC50 reads 17.6

Noted for "Cc1ccc(S(=O)(=O)Nc2cccc3ncccc23)s1" : its EC50 reads 27.6

Noted for CCCOC(=O)c1ccc(OCC(O)Cn2c(C)nc3ccccc32)cc1 (configuration not stated) : its EC50 reads 10

---
Noted for "CCOC(=O)c1sc2nc(NC(=O)C(C)(C)C)sc2c1C" : its EC50 reads 10.1

Noted for "c1ccc(N2CCN(Cc3ccnc4ccccc34)CC2)cc1" : its EC50 reads 10.6

* * *

target: Sphingosine 1-phosphate receptor 1 (Homo sapiens, UniProt P21453); assay: potentiators of S1P1 agonist response, dose response, cell-based, potentiator mode, 60K MLSMR set (AID 466)
metric: EC50

Worked cases, answers included:
Noted for "Cc1cccc(NC(=O)Nc2ccc(C#N)cc2)n1" : its EC50 reads > 30 µM

Noted for "Oc1ccc(-c2nnc(-c3ccc(O)cc3)nn2)cc1" : its EC50 reads > 10 µM

Noted for Cc1cccc(-n2ncc3c(N(C)C4CCCCC4)ncnc32)c1 [MLS000100814] : its EC50 reads > 95 µM

In the following, a different compound is considered.
Noted for "COC(=O)C1=CN(CCCN2CCCC2=O)C=C(C(=O)OC)C1c1ccccc1C(F)(F)F" : its EC50 reads > 95 µM

* * *

Listed here: items and their measured EC50.
molecular target: Sphingosine 1-phosphate receptor 1 (Homo sapiens, UniProt P21453); experiment: potentiators of S1P1 agonist response, dose response, cell-based, potentiator mode, 60K MLSMR set (AID 466)

Noted for "CCOC(=O)/C=C/S(=O)(=O)c1ccc(NC(C)=O)cc1" : its EC50 reads > 10 µM

Noted for "CCN(CC)C(=O)CS/C(=N/C#N)Nc1ccccc1F" : its EC50 reads > 95 µM

Noted for CC1CCc2nc(NC(=O)CSc3nc4ccccc4o3)sc2C1 (centres undefined) : its EC50 reads > 30 µM

---
Noted for "CCOC(=O)c1sc2nc(NC(=O)C3CCCCC3)sc2c1C" : its EC50 reads > 30 µM

* * *

target: Sphingosine 1-phosphate receptor 1 (Homo sapiens); assay: potentiators of S1P1 agonist response, dose response, cell-based, potentiator mode, 60K MLSMR set (AID 466)
metric: EC50

Worked cases, answers included:
Noted for COc1cc2c(cc1OC)C(C)N(C(=O)c1cc3ccccc3o1)CC2 (stereo not drawn) : its EC50 reads > 30 µM

Noted for "Cc1ccc(O)c(NC(=O)CCC2CCCCC2)c1" : its EC50 reads > 95 µM

Noted for CC1=NC(=O)NC(c2ccc(Cl)cc2)C1C(=O)OCc1ccc2c(c1)OCO2 (stereo not drawn) : its EC50 reads > 0.3 µM

Noted for COC(=O)c1ccc(C(c2c(N)n(CC(C)C)c(=O)[nH]c2=O)N2CCN(c3ccccc3)CC2)cc1 (stereo not drawn) : its EC50 reads > 95 µM

---
Noted for "c1ccc(N2CCN(c3ncnc4c3oc3ccccc34)CC2)cc1" : its EC50 reads > 95 µM

Noted for "CCc1nnc(NC(=O)C2CCCCC2)s1" : its EC50 reads > 95 µM

Noted for "O=C(C1CCC1)N1CCc2cc(S(=O)(=O)Nc3ccc4c(c3)OCCO4)ccc21" : its EC50 reads > 30 µM

Noted for O=C(CCC(=O)N(Cc1ccco1)C(C(=O)NC1CCCC1)c1ccncc1)Nc1cccnc1 (stereo not drawn) : its EC50 reads > 95 µM
